- System Name: SMYD2 (Homo sapiens, UniProt Q9NRG4)
- Sequence (Q9NRG4 whole entry): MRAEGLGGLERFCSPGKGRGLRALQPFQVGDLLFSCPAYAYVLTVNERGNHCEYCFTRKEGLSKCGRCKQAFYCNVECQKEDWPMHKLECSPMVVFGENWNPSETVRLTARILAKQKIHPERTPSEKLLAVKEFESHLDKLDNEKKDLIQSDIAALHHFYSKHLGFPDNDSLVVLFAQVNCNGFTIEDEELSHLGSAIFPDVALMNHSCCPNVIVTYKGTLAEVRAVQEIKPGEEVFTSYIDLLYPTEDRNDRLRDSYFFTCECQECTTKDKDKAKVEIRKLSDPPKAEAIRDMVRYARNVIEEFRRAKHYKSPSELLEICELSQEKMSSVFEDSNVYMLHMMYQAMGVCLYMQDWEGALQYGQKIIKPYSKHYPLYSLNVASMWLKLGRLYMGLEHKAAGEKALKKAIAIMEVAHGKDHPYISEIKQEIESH
- Test Description: SMYD2 biochemical methylation assay (3H-SAM, H3,1–29 peptide, flashplate)
- Parameters: Full length FLAG-SMYD2 and C-terminally Avi-tagged full length SMYD2 (SMYD2-Avi) were cloned into pFastbac vectors; FLAG (N); His tag with TEV cleavage site (N, cleaved yes); made in house; host or cells: Sf9 insect cells (baculovirus)
- Particulars: IC50 at 20 nM SAM, 1 nM SMYD2, 60 nM H3,1-29, 20 nM SAM
I'd appreciate it if you could supply pIC50 values for the items below.
Answers are plain numbers, as −log10 of the molar value.

Smiles Text	pIC50
O=C(NC1CN(Cc2cnn(Cc3ccc(Cl)cc3)c2)C1)c1cn(C2CC2)nn1	8.55

Below: the item to evaluate.
The molecule listed as `O=C(NC1CN(Cc2cnn(Cc3ccccc3)c2)C1)c1cn(C2CC2)nn1` shows pIC50 equal to 7.68
